The origin of these recorded values is patent US9475808B2.

- target.desc: UniProt:Q9Y233
- assay.comment: Measurement of PDE activity (HTRF cAMP assay, recombinant enzyme)
- measurement.conditions: 20 nM cyclic nucleotide substrate, 60 minutes at 29 C
pIC50: −log10 of the molar value.
value.kind: pIC50

Query block: Give the reported pIC50 for this compound. Cn1cc2c(c(-c3cncnc3)c1=O)C(=O)N(CCc1ccc3ccccc3n1)C2
Result block: 6.70 to 7.00

Query block: Give the reported pIC50 for this compound. Cn1cc2c(c(-c3ccncc3)c1=O)CN(CCc1ccc3ccccc3n1)C2=O
Result block: < 6.30

Query block: Give the reported pIC50 for this compound. CC(C)n1cc2c(c(N3CCOCC3)c1=O)C(=O)N(CCc1ccc3ccccc3n1)C2
Result block: > 7.00

Query block: Give the reported pIC50 for this compound. O=C1c2c(cn(CCO)c(=O)c2N2CCOCC2)CN1CCc1ccc2ccccc2n1
Result block: > 7.00

Query block: Give the reported pIC50 for this compound. CN1CCN(c2c3c(cn(C)c2=O)C(=O)N(CCc2ccc4ccccc4n2)C3)CC1
Result block: < 6.30

Query block: Give the reported pIC50 for this compound. O=C1c2c(c[nH]c(=O)c2N2CCOCC2)CN1CCc1ccc2ccccc2n1
Result block: > 7.00

###

Parameter pIC50: see the listing below.
- target.desc: UniProt:Q9Y233
- assay.comment: Measurement of PDE activity (HTRF cAMP assay, recombinant enzyme)
- measurement.conditions: 20 nM cyclic nucleotide substrate, 60 minutes at 29 C
pIC50: −log10 of the molar value.

Here are 3 compounds together with their reported answers.
[
  {
    "compound": "Cn1cc2c(c(-c3cn[nH]c3)c1=O)C(=O)N(CCc1ccc3ccccc3n1)C2",
    "pIC50": "< 6.30"
  },
  {
    "compound": "Cn1cc2c(c(N3CCOCC3)c1=O)C(=O)N(CCc1ccc3ccccc3n1)C2(F)F",
    "pIC50": "> 7.00"
  },
  {
    "compound": "Cn1cc2c(c(-c3ccc(F)cc3)c1=O)C(=O)N(CCc1ccc3ccccc3n1)C2",
    "pIC50": "6.70 to 7.00"
  }
]

Query block: Give the reported pIC50 for this compound. Cn1cc2c(c(-c3cccnc3)c1=O)C(=O)N(CCc1nc3ccccn3n1)C2
Result block: < 6.30

Query block: Give the reported pIC50 for this compound. Cn1cc2c(c(-c3cccnc3)c1=O)C(=O)N(CCc1ccc3ccccc3n1)C2
Result block: < 6.30

Query block: Give the reported pIC50 for this compound. Cn1cc2c(c(N3CCOCC3)c1=O)C(=O)N(CCc1cn3ccccc3n1)C2
Result block: > 7.00

Query block: Give the reported pIC50 for this compound. COc1ccc(Cn2cc3c(c(N4CCOCC4)c2=O)C(=O)N(CCc2ccc4ccccc4n2)C3)cc1
Result block: > 7.00

Query block: Give the reported pIC50 for this compound. Cn1cc2c(c(N3CCOCC3)c1=O)C(=O)N(CCc1nc3n(n1)CCCC3)C2
Result block: < 6.30

Query block: Give the reported pIC50 for this compound. COCCn1cc2c(c(N3CCOCC3)c1=O)C(=O)N(CCc1ccc3ccccc3n1)C2
Result block: > 7.00

Query block: Give the reported pIC50 for this compound. Cn1cc2c(c(N3CCOCC3)c1=O)C(=O)N(CCc1nc3ccccn3n1)C2
Result block: < 6.30

Query block: Give the reported pIC50 for this compound. Cn1cc2c(c(N3CCOCC3)c1=O)C(=O)N(CCc1ccc3ccccc3n1)C2
Result block: > 7.00
